# System: HL-60(TB) leukemia
# Method: NCI tumour cell line growth inhibition, 48 h
Reported GI50 values are given for each entry in this list.

Compound	Tested on	Readout	Result
COc1ccc(C(=O)/C=C/c2ccc(Cl)c(Cl)c2)cc1S(N)(=O)=O	HL-60(TB) leukemia	GI50	1.88 µM
CN(C)c1nc(NCCNS(=O)(=O)c2ccc(C(=O)/C=C/c3ccccc3)cc2)nc(Nc2ccc(F)cc2)n1	HL-60(TB) leukemia	GI50	3.88 µM
O=C(N=Nc1c(O)[nH]c2ccc(Br)cc12)c1ccc2nc(-c3ccc(Cl)cc3)[nH]c2c1	HL-60(TB) leukemia	GI50	> 38 µM

Read the next record carefully.
Item: O=C(c1ccc(Cl)cc1)C1[C@H](c2ccccc2Br)[C@@H](c2ccccc2)NC12C(=O)Nc1ccc(Cl)cc12 (some centres undefined) Test system: HL-60(TB) leukemia Read-out: GI50 Value: ?
13.2 µM

###

# Tested on: MDA-MB-468 breast
# Method: NCI tumour cell line growth inhibition, 48 h
Readout: TGI (µM)
Write the number in µM without appending the unit.

Param item = Fc1ccc([C@@H]2CCNC[C@H]2COc2ccc3c(c2)OCO3)cc1 ; retrieve measured TGI.
21

Param item = CC[C@H](C)[C@H]1NC(=O)[C@@H]([C@H](O)C(C)C)NC(=O)[C@@H](C)N(C)C(=O)[C@H](C)N(C)C(=O)[C@H](CC(C)C)NC(=O)[C@H](CC(C)C)N(C)C(=O)[C@H](C)N(C)C1=O ; retrieve measured TGI.
10.5

Param item = NC(=O)c1sc(-n2cnc3ccc(C(F)(F)F)cc32)cc1OCc1ccccc1Br ; retrieve measured TGI.
0.977

Param item = COC1C(CO)OC(n2c3c(Cl)cccc3c3c4c(c5c6cccc(Cl)c6[nH]c5c32)C(=O)NC4=O)C(O)C1O (stereo not given) ; retrieve measured TGI.
0.352

###

# System: T-47D breast
# Method: NCI tumour cell line growth inhibition, 48 h
Readout: TGI

Examples with answers:
CN(C)c1nc(NCCNS(=O)(=O)c2ccc(C(=O)/C=C/c3ccccc3)cc2)nc(Nc2ccc(F)cc2)n1 14.2 µM
COc1ccc(C(=O)/C=C/c2ccc(Cl)c(Cl)c2)cc1S(N)(=O)=O 5.57 µM
COc1cc(-c2nc3ccc(C)cc3[nH]2)ccc1OCc1nnc(-c2ccc(Br)cc2)o1 34.4 µM

Read the next record carefully.
Param item = O=C(CNc1nc(-c2ccccc2)cs1)Nc1cccc(Cl)c1 ; retrieve measured TGI.
22.6 µM

###

Reported GI50 values are given for each entry in this list.
# Test system: IGROV1 ovarian
# Method: NCI tumour cell line growth inhibition, 48 h

Examples with answers:
Compound	GI50
CN(C)c1nc(NCCNS(=O)(=O)c2ccc(C(=O)/C=C/c3ccccc3)cc2)nc(Nc2ccc(F)cc2)n1	11.2 µM
COc1cc(-c2nc3ccc(C)cc3[nH]2)ccc1OCc1nnc(-c2ccc(Br)cc2)o1	16.3 µM

Param item = COc1ccc(C(=O)/C=C/c2cccnc2)cc1S(N)(=O)=O ; retrieve measured GI50.
12.4 µM

Param item = O=C(c1ccc(Cl)cc1)C1[C@H](c2ccccc2Br)[C@@H](c2ccccc2)NC12C(=O)Nc1ccc(Cl)cc12 (stereo partly specified) ; retrieve measured GI50.
9.73 µM

Param item = COc1ccc(C(=O)/C=C/c2ccc(Cl)c(Cl)c2)cc1S(N)(=O)=O ; retrieve measured GI50.
2 µM

Param item = O=C(N=Nc1c(O)[nH]c2ccc(Br)cc12)c1ccc2nc(-c3ccc(Cl)cc3)[nH]c2c1 ; retrieve measured GI50.
> 38 µM

###

# Tested on: MDA-MB-468 breast
# Method: NCI tumour cell line growth inhibition, 48 h; in the data active means GI50 below about 0.43 µM; inactive means the rest
The reply should be one of these categories: 1 (active), 0 (inactive)

Compound	Answer label
O=C1NC(=O)[C@@H](c2c[nH]c3ccccc23)[C@@H]1c1c[nH]c2ccccc12	0
CCCCCCCCNC(C)C(O)c1ccc(SC(C)C)cc1 (centres undefined)	0
COc1cc(C(=O)O/N=C(\N)Cc2cccc3ccccc23)cc(OC)c1OC	0

Query: recorded result category for O=C(Nc1ccc(Nc2ccncc2)cc1)c1ccc(Nc2ccnc3ccc([N+](=O)[O-])cc23)cc1[N+](=O)[O-] in this test
0

Query: recorded result category for COc1cc(/C(=C2/O[C@@H]([C@H]3COC(C)(C)O3)[C@H]3OC(C)(C)O[C@@H]23)c2ccc3c(c2)OCO3)cc(OC)c1OC in this test
0

###

# Tested on: SK-OV-3 ovarian
# Method: NCI tumour cell line growth inhibition, 48 h
Readout: TGI

Molecule	Result
O=C(N=Nc1c(O)[nH]c2ccc(Br)cc12)c1ccc2nc(-c3ccc(Cl)cc3)[nH]c2c1	> 38 µM
COc1ccc(C(=O)/C=C/c2cccnc2)cc1S(N)(=O)=O	31.1 µM
CN(C)c1nc(NCCNS(=O)(=O)c2ccc(C(=O)/C=C/c3ccccc3)cc2)nc(Nc2ccc(F)cc2)n1	29.7 µM
O=C(c1ccc(Cl)cc1)C1[C@H](c2ccccc2Br)[C@@H](c2ccccc2)NC12C(=O)Nc1ccc(Cl)cc12 (stereo not given in full)	34.4 µM

Param item = COc1cc(-c2nc3ccc(C)cc3[nH]2)ccc1OCc1nnc(-c2ccc(Br)cc2)o1 ; retrieve measured TGI.
> 100 µM

###

Reported TGI values are given for each entry in this list.
# Tested on: PC-3 prostate
# Method: NCI tumour cell line growth inhibition, 48 h

Compound	TGI
COc1cc(-c2nc3ccc(C)cc3[nH]2)ccc1OCc1nnc(-c2ccc(Br)cc2)o1	> 100 µM
COc1ccc(C(=O)/C=C/c2cccnc2)cc1S(N)(=O)=O	33.2 µM
COc1ccc(C(=O)/C=C/c2ccc(Cl)c(Cl)c2)cc1S(N)(=O)=O	5.07 µM

Read the next record carefully.
Item: O=C(c1ccc(Cl)cc1)C1[C@H](c2ccccc2Br)[C@@H](c2ccccc2)NC12C(=O)Nc1ccc(Cl)cc12 (some centres undefined) Test system: PC-3 prostate Read-out: TGI Value: ?
20.1 µM

###

Reported GI50 values are given for each entry in this list.
# Tested on: BT-549 breast
# Method: NCI tumour cell line growth inhibition, 48 h

CN(C)c1nc(NCCNS(=O)(=O)c2ccc(C(=O)/C=C/c3ccccc3)cc2)nc(Nc2ccc(F)cc2)n1 13.9 µM

Param item = O=C(CNc1nc(-c2ccccc2)cs1)Nc1cccc(Cl)c1 ; retrieve measured GI50.
4.82 µM

Param item = COc1cc(-c2nc3ccc(C)cc3[nH]2)ccc1OCc1nnc(-c2ccc(Br)cc2)o1 ; retrieve measured GI50.
21.3 µM

Param item = O=C(N=Nc1c(O)[nH]c2ccc(Br)cc12)c1ccc2nc(-c3ccc(Cl)cc3)[nH]c2c1 ; retrieve measured GI50.
> 38 µM

###

# Test system: ACHN renal
# Method: NCI tumour cell line growth inhibition, 48 h
Readout: TGI (µM)
Write the number in µM without appending the unit.

Examples with answers:
Compound	Quantitative readout
CN(C)c1nc(NCCNS(=O)(=O)c2ccc(C(=O)/C=C/c3ccccc3)cc2)nc(Nc2ccc(F)cc2)n1	17.3
O=C(CNc1nc(-c2ccccc2)cs1)Nc1cccc(Cl)c1	19.8
O=C(c1ccc(Cl)cc1)C1[C@H](c2ccccc2Br)[C@@H](c2ccccc2)NC12C(=O)Nc1ccc(Cl)cc12 (some centres undefined)	18.9

Param item = COc1ccc(C(=O)/C=C/c2ccc(Cl)c(Cl)c2)cc1S(N)(=O)=O ; retrieve measured TGI.
3.11

###

Reported GI50 values are given for each entry in this list.
# System: MOLT-4 leukemia
# Method: NCI tumour cell line growth inhibition, 48 h

Examples with answers:
COc1ccc(C(=O)/C=C/c2cccnc2)cc1S(N)(=O)=O 3.5 µM
O=C(N=Nc1c(O)[nH]c2ccc(Br)cc12)c1ccc2nc(-c3ccc(Cl)cc3)[nH]c2c1 11.1 µM
COc1cc(-c2nc3ccc(C)cc3[nH]2)ccc1OCc1nnc(-c2ccc(Br)cc2)o1 6.86 µM

Read the next record carefully.
Param item = CN(C)c1nc(NCCNS(=O)(=O)c2ccc(C(=O)/C=C/c3ccccc3)cc2)nc(Nc2ccc(F)cc2)n1 ; retrieve measured GI50.
3.22 µM

###

# Test system: MDA-MB-468 breast
# Method: NCI tumour cell line growth inhibition, 48 h
Readout: log10(TGI) (log10 of the value in µM)
Values reflect log10 of reported TGI (µM).

Compound	log10(TGI)
COc1cc(-c2nc3ccc(C)cc3[nH]2)ccc1OCc1nnc(-c2ccc(Br)cc2)o1	1.49
CCCCCCCCCCCC1=NC(C)(C)CN1CC(C)O (stereo not given)	1.04

Param item = CN1CCN(c2ccc3nc(-c4[nH]ncc4Nc4ncnc5c4OCCCN5)[nH]c3c2)CC1 ; retrieve measured log10(TGI).
-1.68

Param item = CCOC(=O)c1ccc(N(C=O)CCC(=O)CCl)cc1 ; retrieve measured log10(TGI).
0.33

Param item = O=C(N=Nc1c(O)[nH]c2ccc(Br)cc12)c1ccc2nc(-c3ccc(Cl)cc3)[nH]c2c1 ; retrieve measured log10(TGI).
1.58

Param item = O=C(NO)c1ccc(Cn2c(=O)n(-c3ccccc3)c(=O)c3ccccc32)cc1 ; retrieve measured log10(TGI).
0.35

Param item = CN(C)c1nc(NCCNS(=O)(=O)c2ccc(C(=O)/C=C/c3ccccc3)cc2)nc(Nc2ccc(F)cc2)n1 ; retrieve measured log10(TGI).
1.11

Param item = CCN(CC)CCOc1ccc(C(=C(c2ccccc2)C2CCCC2)c2ccc(OCCN(CC)CC)cc2)cc1 ; retrieve measured log10(TGI).
0.74
